Molecular target: T1, S100A4 (UniProt P26447 1-101)
T1 construct: S100A4; the NMR analysis speaks of residues 1-101; The His-tag is named only for the SPR experiment (two His-tags in the dimer); also called WT S100A4; u-S100A4; source: expressed and purified as described previously (Badyal et al., 2011)
Assay: stopped-flow Quin-2 fluorescence (Ca2+ dissociation); M39 premixed with 13 µM S100A4 (monomer concentration) and 50 µM Ca2+, mixed with 100 µM Quin-2; 20 mM NaCl, 10 mM Hepes, 1 mM MgCl2, pH 7.5, 20 °C; amplitude of the fast phase against [M39]; mutants with up to 50 µM M39
Conditions: both partners purified
quantity-measured: Kd

| binder | quantity-measured | reported-result |
| --- | --- | --- |
| QRELEDATETADAMNREVSSLKNKLRRGDLPFVVPRRMA (nonmuscle myosin IIA heavy chain (NM-MHC IIA), residues Q1897-A1935; also called u-M39; WT M39; source: synthetic peptide; bought: GL Biochem Ltd (Shanghai, China), purity >95% by HPLC) [M39 peptide of nonmuscle myosin IIA heavy chain (residues Q1897-A1935)] | Kd | < 500 nM |
